- System: HIV strain HXB2 in MT4-X4 cells
- Test name: microbe, parasite or virus in culture
- Test settings: Human immunodeficiency virus 1, HXB2, 120 h, read-out: 50% inhibition concentration (IC50)
Property name: IC50

response.value for c1cc(CN2CCCNCCNCCCNCC2)ccc1CN1CCCNCCNCCCNCC1 [AMD3100] (field: IC50) = 0.054 µM

All figures here come from patent US20130261049A1.
